Test system: Mycobacterium tuberculosis
Assay: Cornell M. t heat shock assay; further: in the data most compounds retested in dose-response had high values
Assay type: functional, organism-based
Set-up: dose or concentration left out as unconfirmed
Screen size: about 69,000 compounds; about 950 (1.4%) showed an effect of 50% or more. The entries come from a sample that favours strong results as a whole.
Known Percent Effect of a selection of compounds

smiles.input: CC(C)CN1Cc2nc(N3CCCC3)ncc2C1=O
Percent Effect [%]: -13.83

smiles.input: O=C(O)C(F)(F)F.O=C(O)C(F)(F)F.c1cncc(OC[C@@H]2CC[C@H]3[C@H](CCN3Cc3cccs3)O2)c1
Percent Effect [%]: -169

smiles.input: Cc1nc(CN2C[C@@H](CN3CCOCC3)[C@@H](CO)C2)c2ccccn12
Percent Effect [%]: 1.211

smiles.input: Cc1ccc(C2(O)CCN(Cc3nc(C)n4ccccc34)CC2)nc1
Percent Effect [%]: 43.96

smiles.input: CCN(CC)c1ncnc2c1CCN(C(=O)Cc1ccccn1)CC2.O=C(O)C(F)(F)F.O=C(O)C(F)(F)F
Percent Effect [%]: -18.08

smiles.input: Fc1ccc(CN[C@@H]2COC[C@H]2c2ccc(F)cc2)cc1.O=C(O)CC(O)(CC(=O)O)C(=O)O
Percent Effect [%]: 2.118

smiles.input: C[C@@H]1CN(CCc2ccccc2)C[C@]12CCN(CC(=O)N(C)C)C2=O.O=C(O)C(F)(F)F
Percent Effect [%]: 2.052

smiles.input: CO[C@@H]1CCN(Cc2ccoc2)[C@H]1Cc1ccccc1.O=C(O)C(F)(F)F
Percent Effect [%]: 14.91

smiles.input: Cl.O=c1c2sccc2nc2n1CCN(Cc1ccsc1)CC2
Percent Effect [%]: -19.75

----------
Tested on: Mycobacterium tuberculosis
Experiment: Cornell M. t heat shock assay; further: in the data most compounds retested in dose-response had high values
Format: functional, organism-based
Parameters: dose or concentration left out as unconfirmed
Out of some 69,000 compounds screened, about 950 (1.4%) showed an effect of 50% or more. This excerpt belongs to a sample that is enriched for strong results.
metric: Percent Effect

compound: CCn1nc(C)c2nc(C)nc(NC3CCCC3)c21
observed.measurement: 69.93%
//
compound: COc1ccccc1N1CCN(C(=O)Cn2nc(C)cc2C)CC1(C)C
observed.measurement: 8.115%
//
compound: CCNC(=O)Cc1ccc(NC(=O)NC(CC)c2ccncc2)cc1 (stereo not given)
observed.measurement: -2.186%
//
compound: CCN(CC)S(=O)(=O)N1CC[C@H](c2ccccc2)[C@H]2NCCCC[C@H]21.Cl
observed.measurement: -6.669%
//
compound: CCCc1noc(CS(=O)(=O)CC(=O)NC(C)CCC)n1 (stereo not given)
observed.measurement: 60.91%
//
compound: C[C@@H]1CN(Cc2cc(C3CCCCC3)no2)CC[C@@]1(O)C1CC1
observed.measurement: -30.44%
//
compound: CC(C)c1noc(CS(=O)(=O)CC(=O)NCC(F)(F)F)n1
observed.measurement: 45.89%
//
compound: CCc1cc(NCCc2cccnc2)n2nc(C)c(C)c2n1
observed.measurement: 66.22%
//
compound: CCC(NC(=O)Nc1ccc(OC)c(C)c1)c1noc(C)n1 (stereo not given)
observed.measurement: 14%
//
compound: Cc1ccc(CN2C[C@H]3C[C@H](C(=O)Nc4cccnc4)[C@@H](C2)O3)cc1
observed.measurement: 0.4433%
//
compound: CCCc1nc(NCCc2ccccc2)c2c(n1)c(C)nn2CC
observed.measurement: 91.68%
//
compound: CN1CCN(C(=O)c2ccc3c(c2)nc(N2CCOCC2)n3C)CC1=O
observed.measurement: 2.08%
//
compound: CCCc1nc(NCCCO)c2c(n1)c(C)nn2CC
observed.measurement: 24.94%
//
compound: CCn1nc(C)c2nc(C(C)C)nc(NCCc3ccc(O)cc3)c21
observed.measurement: -11.29%
//
compound: Cc1ncsc1CN1C[C@@H]2COC[C@]2(CNC(=O)c2ccccc2)C1.O=C(O)C(F)(F)F
observed.measurement: -24.18%
//
compound: Cc1cc(C(F)(F)F)nc(CCNC(C)Cn2ccnc2)n1 (stereo not given)
observed.measurement: 103.9%
//
compound: O=C(O)C(F)(F)F.O=C(c1ccncc1F)N1CCc2onc(COc3cccnc3)c2C1
observed.measurement: 2.972%
//
compound: Cn1ccnc1CN1CCc2onc(COCC3CC3)c2C1.O=C(O)C(F)(F)F
observed.measurement: 34.07%
//
compound: O=C(O)C(F)(F)F.O=C(c1ccco1)N1CCCC2(CCN(c3nncs3)C2)C1 (stereo not given)
observed.measurement: 42.37%
//
compound: Cc1cccnc1CN1CCN(c2noc(-c3ccccc3)n2)CC1
observed.measurement: 100.3%
//
compound: CN1CCC(CNC(=O)c2cccc(C(F)(F)F)c2)c2ccccc21 (stereo not given)
observed.measurement: 80.18%
//
compound: Fc1cccc(Cl)c1CNCc1ccccn1
observed.measurement: 50.99%
//
compound: Fc1cccc(Cl)c1CNCCOc1ccccn1
observed.measurement: -12.87%
//
compound: O=C(NCc1ccccn1)[C@@H]1CCO[C@@H]2CCN(Cc3ccoc3)C[C@H]21.O=C(O)C(F)(F)F.O=C(O)C(F)(F)F
observed.measurement: 8.703%
//
compound: O=C(O)C(F)(F)F.O=C(c1ccno1)N1CCO[C@@H]2CC(COCc3ccccn3)C[C@H]21 (stereo not given in full)
observed.measurement: 1.135%
//
compound: CS(=O)(=O)N1CCC2(CC1)CC(NCc1ccco1)c1ccccc12.O=C(O)C(F)(F)F (stereo not given)
observed.measurement: 55%
//
compound: CN1CCC(CNC(=O)c2cccc(NC(N)=O)c2)c2ccccc21 (stereo not given)
observed.measurement: 13.83%
//
compound: Cl.Cn1ccnc1C1(O)CCN(C(=O)CCc2ccccc2)CC1
observed.measurement: 1.719%
//
compound: CCc1nccn1-c1cccc(C2CCCN2)n1.Cl.Cl (stereo not given)
observed.measurement: 8.16%
//
compound: Cc1cccc(N2CCc3ncc(CNS(C)(=O)=O)n3CC2)n1.O=C(O)C(F)(F)F
observed.measurement: -36.69%
//
compound: Cc1noc(-c2ccc(N3CCN(Cc4ncccc4C)CC3)nc2)n1
observed.measurement: -11.68%
//
compound: Cc1cc(C(F)(F)F)nc(CCNC(C)Cn2nc(C)cc2C)n1 (stereo not given)
observed.measurement: 1.181%
//
compound: CCn1nc(C)c2nc(C)nc(NCCc3ccccc3)c21
observed.measurement: 83.2%
//
compound: CCc1cc(NCCc2cnccn2)n2nc(C)c(C)c2n1
observed.measurement: 78.14%
//
compound: CCCc1noc(CCC(=O)NC(C)c2nnc3n2CCCCC3)n1 (stereo not given)
observed.measurement: -4.52%
//
compound: Cc1nc(NC2CC2)c2c(n1)c(C)nn2C
observed.measurement: -10.52%
//
compound: CCn1nc(C)c2nc(C)nc(NCCCn3cccn3)c21
observed.measurement: -3.879%
//
compound: CCc1cc(NCCN2CCNC2=O)n2nc(C)c(C)c2n1
observed.measurement: -8.001%
//
compound: Cc1cc(C(F)(F)F)nc(CCNC(C)Cn2cncn2)n1 (stereo not given)
observed.measurement: 16.73%
//
compound: CCOc1ccnc(N2CCN(Cc3ncccc3C)CC2)n1
observed.measurement: 17.62%
//
compound: CCn1nc(C)c2nc(C)nc(NCCc3ccc(C)cc3)c21
observed.measurement: 69.41%
//
compound: Cc1cc(NC2CCN(Cc3ccccn3)CC2)n2nc(C)c(C)c2n1
observed.measurement: 3.704%
//
compound: Cc1cc(N[C@@H](CO)c2ccccc2)n2nc(C)c(C)c2n1
observed.measurement: 11.1%
//
compound: CCCn1c(NCCc2ccccc2)nc2c(C)nn(C)c2c1=O
observed.measurement: 22.06%
//
compound: CCCn1nc(C)c(-c2cncn2CCN(C)C2CCCC2)c1C.Cl
observed.measurement: 7.382%

----------
Test system: Mycobacterium tuberculosis
Test: Cornell M. t heat shock assay; further: in the data most compounds retested in dose-response had high values
Assay type: functional, organism-based
Parameters: dose or concentration left out as unconfirmed
The campaign covered roughly 69,000 compounds. About 950 (1.4%) showed an effect of 50% or more. Shown is part of a subset that was picked to be rich in strong results.
List of Percent Effect values.
metric: Percent Effect (%)

compound: O=S(=O)(c1ccc2c(c1)OCCO2)N1CCc2ccccc2C1
observed.measurement: -4.595
//
compound: O=C(CN1CCCC(c2ccn[nH]2)C1)Nc1nc2c(s1)CCCC2 (stereo unspecified)
observed.measurement: 102.5
//
compound: Cc1cnccc1-c1cnn(CCNC(=O)c2cccnc2)c1C1CC1.Cl
observed.measurement: -20.8
//
compound: Cc1nnc(NC(=O)CN2CCCC(Cn3cncn3)C2)s1 (stereo unspecified)
observed.measurement: 2.027
//
compound: Cc1nnc(NC(=O)CN2CCCC(c3ccn[nH]3)C2)s1 (stereo unspecified)
observed.measurement: 101.7
//
compound: Cc1nc(C)n(CC2CCCN(CC(=O)Nc3nnc(C)s3)C2)n1 (stereo unspecified)
observed.measurement: -28.96
//
compound: Cc1cc(C2CCCN(CC(=O)Nc3nc4c(s3)CCC4)C2)n[nH]1 (stereo unspecified)
observed.measurement: 104
//
compound: CC(C)C1Nc2ccccc2C(=O)N1CC(=O)Nc1nc2c(s1)CCC2 (stereo unspecified)
observed.measurement: -0.3209
//
compound: O=C(CN1CCCC(c2ccn[nH]2)C1)N1CCCc2ccccc21 (stereo unspecified)
observed.measurement: -24.99
//
compound: Cc1cc(C2CCCN(CC(=O)N3CCc4ccccc43)C2)n[nH]1 (stereo unspecified)
observed.measurement: -11.71
//
compound: O=C(CN1CCCC(c2ccn[nH]2)C1)Nc1nncs1 (stereo unspecified)
observed.measurement: 98.23
